biological target: GCN2 (Homo sapiens, UniProt Q9P2K8)
Sequence (Q9P2K8 whole entry): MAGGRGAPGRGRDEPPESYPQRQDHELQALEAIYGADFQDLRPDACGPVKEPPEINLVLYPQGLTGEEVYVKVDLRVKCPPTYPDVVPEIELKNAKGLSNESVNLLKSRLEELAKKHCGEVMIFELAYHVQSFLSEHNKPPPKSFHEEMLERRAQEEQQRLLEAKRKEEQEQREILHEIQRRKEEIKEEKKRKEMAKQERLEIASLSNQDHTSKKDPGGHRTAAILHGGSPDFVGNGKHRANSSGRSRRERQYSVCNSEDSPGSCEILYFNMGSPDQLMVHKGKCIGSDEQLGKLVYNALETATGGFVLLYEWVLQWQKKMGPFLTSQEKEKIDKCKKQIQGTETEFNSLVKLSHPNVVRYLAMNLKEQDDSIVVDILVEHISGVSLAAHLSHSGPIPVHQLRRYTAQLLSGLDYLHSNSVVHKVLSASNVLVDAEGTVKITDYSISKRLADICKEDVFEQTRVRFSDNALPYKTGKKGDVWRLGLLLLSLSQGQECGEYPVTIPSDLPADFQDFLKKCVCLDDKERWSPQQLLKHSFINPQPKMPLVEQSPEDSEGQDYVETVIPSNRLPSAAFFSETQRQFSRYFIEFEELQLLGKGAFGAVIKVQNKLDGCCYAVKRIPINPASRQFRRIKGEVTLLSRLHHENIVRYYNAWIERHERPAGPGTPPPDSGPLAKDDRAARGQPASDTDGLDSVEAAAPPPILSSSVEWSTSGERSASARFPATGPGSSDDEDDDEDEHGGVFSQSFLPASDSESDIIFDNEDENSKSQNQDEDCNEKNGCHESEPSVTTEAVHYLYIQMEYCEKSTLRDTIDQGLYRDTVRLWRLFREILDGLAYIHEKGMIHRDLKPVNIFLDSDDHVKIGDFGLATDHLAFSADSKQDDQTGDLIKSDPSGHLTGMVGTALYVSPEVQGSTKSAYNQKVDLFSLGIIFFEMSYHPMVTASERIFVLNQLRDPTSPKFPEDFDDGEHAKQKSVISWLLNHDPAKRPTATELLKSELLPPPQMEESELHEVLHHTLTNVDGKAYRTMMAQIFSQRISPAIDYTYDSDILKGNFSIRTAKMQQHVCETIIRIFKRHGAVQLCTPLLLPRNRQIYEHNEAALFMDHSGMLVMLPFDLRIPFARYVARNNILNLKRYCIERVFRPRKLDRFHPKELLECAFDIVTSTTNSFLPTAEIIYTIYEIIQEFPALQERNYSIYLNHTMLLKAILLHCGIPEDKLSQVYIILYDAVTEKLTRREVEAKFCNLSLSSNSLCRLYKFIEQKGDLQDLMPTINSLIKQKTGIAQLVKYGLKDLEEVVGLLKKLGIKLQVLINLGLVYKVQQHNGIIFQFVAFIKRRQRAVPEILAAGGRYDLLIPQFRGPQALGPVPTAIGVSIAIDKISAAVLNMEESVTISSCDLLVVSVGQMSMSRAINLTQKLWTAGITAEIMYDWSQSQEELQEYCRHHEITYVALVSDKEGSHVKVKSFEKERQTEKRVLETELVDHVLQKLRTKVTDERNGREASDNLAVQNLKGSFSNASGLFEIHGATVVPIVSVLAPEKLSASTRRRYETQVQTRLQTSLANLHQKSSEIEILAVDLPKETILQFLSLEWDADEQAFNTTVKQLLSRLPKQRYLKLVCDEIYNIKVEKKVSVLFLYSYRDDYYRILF
observation type: IC50 (nM)
Numeric only. Scale: nM

IC50 value, target or system GCN2 (Homo sapiens, UniProt Q9P2K8), for C=CCn1c(=O)c2cnc(Nc3ccc(N4CCN(C)CC4)cc3)nc2n1-c1cccc(C(C)(C)O)n1 [AZD1775] : 140

Origin of measurements: paper PMC12749252
